Assay Notes: A qHTS for Small Molecule Inhibitors of Shiga Toxin
Run Conditions: Vero cells, Shiga toxin protein synthesis inhibition reporter; at 38.7 µM
Hit rate of the full screen: of about 290,000 compounds, about 27,000 (9.3%) were called active. Rule as the data show it: active = inhibition mostly above about 28% (no sharp cut-off); inactive = mostly below about 43%. Many of the other results were omitted from the sample, so actives are more common in it than they were.
Entry note: the call must match one of active, inactive

1) CCOC(=O)c1c(C)[nH]c2c1-c1ccccc1C(=O)C2=O    inactive
2) COc1ccc(/C=N/NC(=O)c2ccc(Cl)cc2)cc1COC(C)=O    inactive
3) CCOC(=O)c1c(C)[nH]c(C2=NNC(=NC(C)COC)SC2)c1C (stereo unspecified)    active

Given `COc1ccc(C2=NS(=O)(=O)N(C)C(C(=O)N(C)Cc3ccccc3)=C2)cc1` , state the outcome it received in this test.
inactive

Given `COc1ccc(CN2CCc3nc(Nc4ccccc4)ncc3C2)c(OC)c1OC` , state the outcome it received in this test.
inactive

Given `CCc1cccc(C)c1N1C(=O)CN(Cc2ccccc2)C1=S` , state the outcome it received in this test.
inactive

---

Assay Notes: A qHTS for Small Molecule Inhibitors of Shiga Toxin
Run Conditions: Vero cells, Shiga toxin protein synthesis inhibition reporter; at 38.7 µM, stronger effect = higher value
The whole screen tested about 290,000 compounds, of which about 27,000 (9.3%) were called active. For the sample, actives were picked, then their nearest neighbours and some compounds at random.
Endpoint Label: inhibition (%)
I only need the number, in %, no unit after it.

Before answering, review these 3 worked examples.
1. CN1CCN(/N=C/c2ccc(C#N)cc2)CC1    81.4
2. CCOc1ccc(S(=O)(=O)NCc2ccc3c(c2)OCO3)cc1C    -11.3
3. COc1ccc(S(=O)(=O)N2CN(CCc3ccc(OC)c(OC)c3)c3nc4ccccc4nc32)cc1    -10.2

Record `CC(=O)c1cccc(NC(=O)c2cc(C)nn2-c2ccccc2)c1` , field inhibition: 30.5

Record `O=S(=O)(c1ccccc1)N1CN(Cc2ccc(F)cc2)c2nc3ccccc3nc21` , field inhibition: 45.9

Record `Cc1cc(C)n(S(=O)(=O)c2cccc([N+](=O)[O-])c2)n1` , field inhibition: -4.69

Record COCC1CCN(C(=O)C2CCC(=O)N(Cc3cccc(C(F)(F)F)c3)C2)CC1 (stereo unspecified) , field inhibition: 38.4

---

Assay Notes: A qHTS for Small Molecule Inhibitors of Shiga Toxin
Run Conditions: Vero cells, Shiga toxin protein synthesis inhibition reporter; at 38.7 µM
Among all 290,000 compounds or so, about 27,000 (9.3%) were called active. Cut-off read from the data, not from the text of the source: active = inhibition mostly above about 28% (no sharp cut-off); inactive = mostly below about 43%. The entries come from a sample that favours actives as a whole.
Entry note: the call must match one of true (1) = active, false (0) = inactive

Use the examples below as a reference point.
1. COC(=O)c1[nH]c2ccccc2c1NC(=O)CN1CCCc2ccccc21    false (0)
2. O=S(=O)(O)c1nc2ccccc2n1Cc1ccc(Cl)cc1Cl    false (0)
3. COc1ccc(NC(=O)c2cn(-c3ccccc3)nc2SC)cc1    true (1)
4. CC(C)c1ccc(OCC(O)CN2CCN(c3ccccn3)CC2)cc1 (centres undefined)    false (0)
5. C=CCn1c(SCC(=O)NCC2CCCO2)nc2sc(C)c(C)c2c1=O (centres undefined)    false (0)
6. C/C(=N\NC(=O)c1ccc(C)cc1)C1C(=O)c2ccccc2C1=O    true (1)
7. COC(=O)c1ccc(C(=O)NC2CC(C)(C)Cc3c2cnn3-c2ccc(F)cc2)nc1 (centres undefined)    false (0)
8. CN(C)Cc1c(O)ccc2c(=O)c(-c3ccccc3Cl)coc12    false (0)

Given `O=C(Cn1nnc(-c2ccccc2)n1)NCc1ccccc1` , state the outcome it received in this test.
false (0)

Given `COCCN(C(=O)C(C)C)c1nnc(-c2ccc(C(C)(C)C)cc2)s1` , state the outcome it received in this test.
false (0)

Given `COc1cc(CO)ccc1OCC(=O)Nc1cccc2ccccc12` , state the outcome it received in this test.
false (0)

Given `Cc1cc(C)c(S(=O)(=O)c2cc(F)ccc2C)c(=O)[nH]1` , state the outcome it received in this test.
false (0)

Given `CC(=O)Nc1ccn(Cc2c(F)cccc2Cl)n1` , state the outcome it received in this test.
true (1)

---

Quick reference: inhibition of the listed items.
Assay Notes: A qHTS for Small Molecule Inhibitors of Shiga Toxin
Run Conditions: Vero cells, Shiga toxin protein synthesis inhibition reporter; at 38.7 µM, stronger effect = higher value
In all, about 290,000 compounds went through this assay and about 27,000 (9.3%) were called active. This is one part of a sample in which actives are shown more often than they occur.
I only need the number, in %, no unit after it.

1. Cc1nc2ccccc2c(-c2ccccc2)c1C(=O)c1ccccc1    -2.44
2. O=C(CCN1C(=O)c2ccncc2C1=O)Nc1ccc2c(c1)OCCO2    13.6
3. CCc1ccc(Oc2coc3cc(O)ccc3c2=O)cc1    57.1

Please look at the following molecule next.
Record `Cc1nn(C(=O)c2ccoc2C)c(N)c1-c1ccccc1` , field inhibition: 131

---

Assay Notes: A qHTS for Small Molecule Inhibitors of Shiga Toxin
Run Conditions: Vero cells, Shiga toxin protein synthesis inhibition reporter; at 38.7 µM, stronger effect = higher value
Screen size: about 290,000 compounds; about 27,000 (9.3%) were called active. The full list was thinned out, with actives kept by preference.
Quick reference: inhibition of the listed items.
I only need the number, in %, no unit after it.

Before answering, review these 3 worked examples.
1. O=C(NCc1ccccc1)c1ccc(S(=O)(=O)Nc2cccc(C(F)(F)F)c2)cc1    -3.31
2. O=C(Nc1cccc2ccccc12)N1CCC2(CC1)OCCO2    54.5
3. CCCc1cc(C(=O)N2CCCC(CO)(CCCc3ccccc3)C2)n(C)n1 (stereo unspecified)    -8.83

Record `O=C(Cc1cccs1)NCc1cccc(C(F)(F)F)c1` , field inhibition: 61.9

Record `O=C(Nc1cccc2ccccc12)N1CCN(Cc2ccc3c(c2)OCO3)CC1` , field inhibition: -3.81

Record `COc1cc(CC(=O)NCc2cccs2)cc(OC)c1OC` , field inhibition: -11.7

---

Assay Notes: A qHTS for Small Molecule Inhibitors of Shiga Toxin
Run Conditions: Vero cells, Shiga toxin protein synthesis inhibition reporter; at 38.7 µM
The whole screen tested about 290,000 compounds, of which about 27,000 (9.3%) were called active. Rule as the data show it: active = inhibition mostly above about 28% (no sharp cut-off); inactive = mostly below about 43%. The list comes from a sample in which actives are over-represented; it also holds close analogues and randomly drawn compounds.
Entry note: the call must match one of 1 for active, -1 for inactive

1) COc1ccc(N2CCN(C(=S)Nc3ccc(S(N)(=O)=O)cc3)CC2)cc1    -1

Given `Cc1ccccc1C1=NC(C(F)(F)F)(C(F)(F)F)c2c(n(-c3ccc(F)cc3)c(=O)[nH]c2=O)N1` , state the outcome it received in this test.
-1

Given `CCOC(=O)c1csc(CCNC(=O)c2oc3c(Cl)cc(C)cc3c2C)n1` , state the outcome it received in this test.
-1

Given `COC(=O)c1cc(S(=O)(=O)Nc2ccc(C)c(F)c2)c[nH]1` , state the outcome it received in this test.
-1

Given `COc1ccc(NC(=O)CSCc2ccc([N+](=O)[O-])cc2)cc1OC` , state the outcome it received in this test.
-1

Given `Cc1ccc(NS(=O)(=O)c2ccc(C(C)(C)C)cc2)cn1` , state the outcome it received in this test.
-1

---

Quick reference: inhibition of the listed items.
Assay Notes: A qHTS for Small Molecule Inhibitors of Shiga Toxin
Run Conditions: Vero cells, Shiga toxin protein synthesis inhibition reporter; at 38.7 µM, stronger effect = higher value
Screen size: about 290,000 compounds; about 27,000 (9.3%) were called active. The sample as a whole holds a higher share of actives than the screen did.
I only need the number, in %, no unit after it.

1. COc1ccc(CC(=O)Nc2cc(S(=O)(=O)N3CCCCC3)ccc2N2CCN(C)CC2)cc1    2.85
2. CCCC(=O)N1CCC(CCC(=O)NC2CC2)CC1    14.8

Please look at the following molecule next.
Record `CCc1c(C)nc2cc(-c3cccs3)[nH]n2c1=O` , field inhibition: 153

---

Assay Notes: A qHTS for Small Molecule Inhibitors of Shiga Toxin
Run Conditions: Vero cells, Shiga toxin protein synthesis inhibition reporter; at 38.7 µM, stronger effect = higher value
Among all 290,000 compounds or so, about 27,000 (9.3%) were called active. Many of the other results were omitted from the sample, so actives are more common in it than they were.
Quick reference: inhibition of the listed items.
I only need the number, in %, no unit after it.

1) CC1CCN(S(=O)(=O)c2ccc(NC(=O)C3CC(=O)N(c4ccccc4)C3)cc2)CC1 (centres undefined)    -4.69
2) O=C(/C=C/c1cnc2ccccc2n1)NC1CCCCCC1    112
3) COc1ccc(S(=O)(=O)N2CCOC2CNC(=O)C(=O)NCc2ccc(F)cc2)cc1 (centres undefined)    -3.23
4) COC(=O)/C=C/C(=O)NCc1ccco1    18.7
5) COc1ccc(C(=O)NC2CCN(C(=O)Nc3ccc(F)cc3)CC2)cc1    -7.18
6) Cc1cc(C)c2nc(SCCC#N)nc(C)c2c1    27.9

Record `COc1ccc(/C(C)=N/N2CCOCC2)c(O)c1` , field inhibition: 47.1

Record O=C(Nc1ccc(-c2cscn2)cc1)C1CCCN(Cc2ccc(CO)o2)C1 (centres undefined) , field inhibition: 7.25

Record `Cc1ccc(C(=O)N2CCC(n3nccc3NC(=O)Nc3cccc(F)c3)CC2)cn1` , field inhibition: -8.38

Record `Cc1ccc(C(=O)Nc2ccc(C)c(S(=O)(=O)N(C)C)c2)s1` , field inhibition: 64.1

Record CC1CCCCN1CCCNc1ccc(C(CC(N)=O)NC(=O)c2ccccc2)cc1[N+](=O)[O-] (centres undefined) , field inhibition: -3.52

Record `C/C=C/C(=O)OCc1csc(CC(=O)Nc2ccccc2C)n1` , field inhibition: -12.5

Record CC(=O)N1c2ccc(S(=O)(=O)N(C)CC(=O)N(C)Cc3ccccc3)cc2CC1C (centres undefined) , field inhibition: -1.97

Record `CCCc1nc(NCc2ccc3c(c2)OCO3)c2nnn(Cc3ccccc3Cl)c2n1` , field inhibition: 7.73

Record CC(C)c1ccc(-c2noc(C3CCCN(S(C)(=O)=O)C3)n2)cc1 (centres undefined) , field inhibition: 64.2

Record Cc1ccc(NC(=O)C2CC2c2ccccc2)cc1 (centres undefined) , field inhibition: 32

Record `COc1cc(NS(=O)(=O)c2ccc(NC(=S)NC(=O)c3ccc(Br)cc3)cc2)ncn1` , field inhibition: -2.95

Record `Cc1ccc(Nc2nc(N3CCOCC3)nc(N3CCOCC3)n2)cc1Cl` , field inhibition: 5.42

Record `CCc1nc2ccc(C(=O)N3CCN(c4cccc(Cl)c4)CC3)cc2nc1CC` , field inhibition: -14

Record `COc1ccc(N2CCN(C(=O)c3ccc(N4CCCCS4(=O)=O)cc3)CC2)cc1` , field inhibition: 3.75

Record `CC1=Nn2c(nnc2-c2ccccc2)SC1` , field inhibition: -3.08

Record `CCN(CC(=O)Nc1ccc2c(c1)OCO2)S(=O)(=O)c1ccccc1` , field inhibition: 2.17

Record COc1cc(C(C(=O)NC2CCCC2)N(Cc2ccccc2)C(=O)c2snc(C(N)=O)c2N)ccc1O (centres undefined) , field inhibition: -1.22

Record O=C(CC1C(=O)NCCN1CC(c1ccccc1)c1ccccc1)NCC1CCOCC1 (centres undefined) , field inhibition: 16.2

Record Cc1c(CN2CCCC(C(=O)c3cccc(Cl)c3)C2)c(=O)n(-c2ccccc2)n1C (centres undefined) , field inhibition: -7.01

Record `O=C(Cn1c(-c2cncs2)nc2ccccc21)NC1CCCC1` , field inhibition: -2.75
